Target: ERα (Homo sapiens, UniProt P03372)
Construct: host or cells: MCF7
Sequence (P03372 whole entry): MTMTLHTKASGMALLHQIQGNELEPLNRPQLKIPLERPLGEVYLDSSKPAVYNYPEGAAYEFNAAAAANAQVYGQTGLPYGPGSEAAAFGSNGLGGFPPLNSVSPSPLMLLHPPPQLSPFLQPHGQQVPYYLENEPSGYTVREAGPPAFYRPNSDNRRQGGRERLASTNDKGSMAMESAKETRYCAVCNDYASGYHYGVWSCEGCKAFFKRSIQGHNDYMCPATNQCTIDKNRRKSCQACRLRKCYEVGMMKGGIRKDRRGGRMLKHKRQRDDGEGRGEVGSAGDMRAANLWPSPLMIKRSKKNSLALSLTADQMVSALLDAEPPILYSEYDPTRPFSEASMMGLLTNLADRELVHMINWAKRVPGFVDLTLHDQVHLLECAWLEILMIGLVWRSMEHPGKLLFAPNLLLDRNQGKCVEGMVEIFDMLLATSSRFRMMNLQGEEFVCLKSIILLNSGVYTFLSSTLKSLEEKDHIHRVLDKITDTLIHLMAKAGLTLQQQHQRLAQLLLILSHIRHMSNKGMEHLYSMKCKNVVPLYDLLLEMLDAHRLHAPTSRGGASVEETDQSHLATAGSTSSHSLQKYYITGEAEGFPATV
Assay: Estrogen receptor degradation activity: breast cancer cell ERα in cell western assay (MCF7 cells)
Assay type: cell-based
Details: 0.3 μM, 4 hours, relative to fulvestrant 0.1 μM positive control
Returns true if the recorded % Degradation At 0.3 μM is greater than or equal to 90%, and false otherwise.

CC1CCc2cc(C(=O)O)ccc2C(c2ccc(CC3CN(CCCF)C3)cc2)=C1c1ccc(Cl)cc1 (single isomer, unassigned) [Example 327] :: false
Cc1cc(CC2CN(CCCF)C2)ccc1C1=C(c2ccc(Cl)cc2Cl)CCCc2cc(C(=O)O)ccc21 [Example 240] :: false
Cc1cc(C2=C(c3ccc(CC4CN(CCCF)C4)cc3)c3ccc(C(=O)O)cc3CCC2)cn(C)c1=O [Example 209] :: true
Cl.O=C(O)c1ccc2c(c1)CCCC(c1cccc3c1CCC3(F)F)=C2c1ccc(CC2CN(CCCF)C2)cc1 [Example 54] :: true
Oc1c(F)cc2c(c1F)CCCC(c1ccc(Cl)cc1Cl)=C2c1ccc(CC2CN(CCCF)C2)cc1 [Example 305] :: false
Cl.O=C(O)c1ccc2c(c1)CCCC(C1CCC(F)(F)CC1)=C2c1ccc(CC2CN(CCCF)C2)cc1 [Example 4] :: false

Does Cl.O=C(O)c1ccc2c(c1)SCCC(c1ccc(Cl)cc1Cl)=C2c1ccc(CC2CN(CCCF)C2)cc1 [Example 52] have a reported % Degradation At 0.3 μM of at least 90%? false

Identify whether the reported % Degradation At 0.3 μM of the following compound is 90% or greater: O=C(O)c1ccc2c(c1)CCCC(c1ncc(Cl)cc1Cl)=C2c1ccc(CC2CN(CCCF)C2)cc1 [Example 234] false
